# Tested system: Voltage-dependent T-type calcium channel subunit alpha-1G (Homo sapiens)
# Sequence (O43497 whole entry): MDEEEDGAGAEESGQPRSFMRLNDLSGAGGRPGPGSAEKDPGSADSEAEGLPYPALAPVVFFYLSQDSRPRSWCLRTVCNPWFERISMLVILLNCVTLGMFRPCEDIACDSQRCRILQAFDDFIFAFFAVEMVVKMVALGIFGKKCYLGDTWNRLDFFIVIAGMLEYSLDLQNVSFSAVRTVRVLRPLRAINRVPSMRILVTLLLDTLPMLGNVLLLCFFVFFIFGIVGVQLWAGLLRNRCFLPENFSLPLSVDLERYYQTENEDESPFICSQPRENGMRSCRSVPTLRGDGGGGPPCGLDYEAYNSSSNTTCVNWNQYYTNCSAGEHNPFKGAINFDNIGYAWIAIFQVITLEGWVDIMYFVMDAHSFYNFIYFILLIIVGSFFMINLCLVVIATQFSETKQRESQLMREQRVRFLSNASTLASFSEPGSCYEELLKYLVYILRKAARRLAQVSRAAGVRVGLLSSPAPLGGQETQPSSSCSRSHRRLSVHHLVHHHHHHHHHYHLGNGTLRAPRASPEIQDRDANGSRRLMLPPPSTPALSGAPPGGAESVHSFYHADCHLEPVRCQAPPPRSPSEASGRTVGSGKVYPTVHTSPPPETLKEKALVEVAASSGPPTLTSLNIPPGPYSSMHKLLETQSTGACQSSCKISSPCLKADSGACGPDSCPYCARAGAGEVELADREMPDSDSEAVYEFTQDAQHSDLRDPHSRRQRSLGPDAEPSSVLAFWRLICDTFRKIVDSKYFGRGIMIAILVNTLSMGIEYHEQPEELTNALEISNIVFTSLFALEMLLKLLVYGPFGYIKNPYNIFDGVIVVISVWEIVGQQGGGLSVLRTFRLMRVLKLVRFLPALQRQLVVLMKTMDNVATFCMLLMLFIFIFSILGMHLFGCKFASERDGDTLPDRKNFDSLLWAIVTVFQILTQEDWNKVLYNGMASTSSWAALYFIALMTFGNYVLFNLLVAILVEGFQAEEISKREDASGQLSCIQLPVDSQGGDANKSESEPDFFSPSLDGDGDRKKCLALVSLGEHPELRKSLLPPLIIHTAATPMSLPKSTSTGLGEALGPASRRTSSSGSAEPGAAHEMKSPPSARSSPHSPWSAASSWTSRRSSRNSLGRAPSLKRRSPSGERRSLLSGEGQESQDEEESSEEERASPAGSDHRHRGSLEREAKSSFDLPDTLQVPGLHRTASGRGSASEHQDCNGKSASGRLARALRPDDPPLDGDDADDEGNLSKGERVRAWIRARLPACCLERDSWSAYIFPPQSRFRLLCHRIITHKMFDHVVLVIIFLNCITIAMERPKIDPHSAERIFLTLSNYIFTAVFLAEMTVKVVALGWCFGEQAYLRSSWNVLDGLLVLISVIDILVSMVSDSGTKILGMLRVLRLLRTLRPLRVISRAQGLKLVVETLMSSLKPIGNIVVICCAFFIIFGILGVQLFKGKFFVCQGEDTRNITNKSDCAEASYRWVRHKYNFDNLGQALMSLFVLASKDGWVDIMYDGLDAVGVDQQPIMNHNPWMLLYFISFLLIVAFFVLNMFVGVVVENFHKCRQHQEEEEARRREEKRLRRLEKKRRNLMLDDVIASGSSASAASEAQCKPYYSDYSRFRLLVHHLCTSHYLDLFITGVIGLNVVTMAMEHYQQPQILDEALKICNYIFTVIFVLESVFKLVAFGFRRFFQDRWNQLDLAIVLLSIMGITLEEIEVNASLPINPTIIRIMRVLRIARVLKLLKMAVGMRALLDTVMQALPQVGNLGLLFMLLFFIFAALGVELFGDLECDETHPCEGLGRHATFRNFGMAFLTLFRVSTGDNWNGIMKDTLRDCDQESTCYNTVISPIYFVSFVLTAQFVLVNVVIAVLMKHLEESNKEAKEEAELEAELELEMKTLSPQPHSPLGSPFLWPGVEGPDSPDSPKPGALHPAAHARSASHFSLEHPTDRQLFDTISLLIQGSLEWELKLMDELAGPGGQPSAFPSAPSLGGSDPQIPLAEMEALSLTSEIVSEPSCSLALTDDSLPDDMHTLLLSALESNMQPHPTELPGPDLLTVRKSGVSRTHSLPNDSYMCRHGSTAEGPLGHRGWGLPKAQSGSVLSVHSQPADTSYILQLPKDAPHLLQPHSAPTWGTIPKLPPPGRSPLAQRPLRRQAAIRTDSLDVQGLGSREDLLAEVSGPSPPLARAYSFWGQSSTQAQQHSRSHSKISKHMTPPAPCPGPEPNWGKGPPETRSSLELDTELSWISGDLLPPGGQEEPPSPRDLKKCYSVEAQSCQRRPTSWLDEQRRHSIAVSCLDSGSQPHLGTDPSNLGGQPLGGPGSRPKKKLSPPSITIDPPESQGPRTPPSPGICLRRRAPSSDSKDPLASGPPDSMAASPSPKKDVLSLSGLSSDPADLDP
# Assay details: In vitro inhibition of alpha-1G T-type [Ca2+] channels expressed in HEK293 cells at 10 uM
# Format: functional, cell-based
Tick rule met if inhibition is 40% or greater. Tick rule not met if inhibition is less than 40%.

O=C(CC1c2ccccc2N=C(N2CCCCC2)N1c1ccccc1)NCc1ccc(NS(=O)(=O)c2ccc(F)cc2)cc1 (centres undefined)
rule met
O=C(CC1c2ccccc2N=C(N2CCCCC2)N1c1ccccc1)NCc1ccc([N+](=O)[O-])cc1 (centres undefined)
rule met
COC(=O)CC1c2ccccc2N=C(N2CCCCC2)N1c1ccccc1 (centres undefined)
rule not met
Cc1ccc(S(=O)(=O)Nc2ccc(CNC(=O)CC3c4ccccc4N=C(N4CCCCC4)N3c3ccccc3)cc2)cc1 (centres undefined)
rule met
O=C(CC1c2ccccc2N=C(N2CCCCC2)N1c1ccccc1)NCc1ccccc1 (centres undefined)
rule met
COCC(=O)O[C@]1(CCN(C)CCCc2nc3ccccc3[nH]2)CCc2cc(F)ccc2[C@@H]1C(C)C
rule met
Nc1ccc(CNC(=O)CC2c3ccccc3N=C(N3CCCCC3)N2c2ccccc2)cc1 (centres undefined)
rule met

Is it the case that CN1CCN(C2=Nc3ccccc3C(CC(=O)NCc3ccccc3)N2c2ccccc2)CC1 (centres undefined) has inhibition reaching or exceeding 40%?
rule not met
